assay: Human HepG2 cell viability assay in 384 well format; assay type: toxicity, cell-based; set-up: dose 125 nL, time 70.5 hour; concentration not given beside the values; conditions: HepG2 cells, read-out: Inhibition
Form field: cytotoxicity at 70.5 h (one value per entry).
Note: unit % is implicit; provide only the numeric part.

Guide cases for cytotoxicity at 70.5 h, answers given:
>  <molecule>
O=C(Nc1cc(-n2cccc2)ccc1F)N1CCCC1

>  <numeric_readout>
-11.7

$$$$
>  <molecule>
COCC(=O)N1CCCC(C)(c2nncn2C)C1 (stereo not drawn)

>  <numeric_readout>
-14.6

$$$$
>  <molecule>
Cc1nc2ccccc2n1Cc1cc(C(=O)N(C)C2CCOC2)n[nH]1 (stereo not drawn)

>  <numeric_readout>
-12.8

$$$$
>  <molecule>
CC(C)N(C)CCNC(=O)NCc1ccccc1-n1cccn1

>  <numeric_readout>
-7.41

$$$$
>  <molecule>
CC(C)(C)C1CC(=O)Nc2c1cnn2Cc1ccco1 (stereo not drawn)

>  <numeric_readout>
-17.9

$$$$
>  <molecule>
COCCNC(=O)NCc1cccc(-n2ccnc2)c1

>  <numeric_readout>
-13.7

$$$$
>  <molecule>
COCCNC(=O)Cn1c(-c2ccco2)cc2cccnc21

>  <numeric_readout>
-8.41

$$$$
>  <molecule>
O=C(c1onc2ccccc12)N1CCC2(CCCNC2)C1 (stereo not drawn)

>  <numeric_readout>
-16.6

$$$$

Prompt: What value of cytotoxicity at 70.5 h has been reported for the following molecule? "Cc1ccc(CN2CCC3(CC2)C(=O)Nc2ccccc23)s1"
Response: -7.74

Prompt: Fill in the blank: the reported cytotoxicity at 70.5 h of O=S(=O)(NCC1CCOc2ccccc2C1)N1CCOCC1 (stereo not drawn) is ____.
Response: -14.9

Prompt: Which cytotoxicity at 70.5 h value belongs to "CN(Cc1ccccc1)C(=O)c1cc2c(c(S(N)(=O)=O)c1)CCC2" ?
Response: 30.7

Prompt: Which value of cytotoxicity at 70.5 h has been reported for COCCOCCNS(=O)(=O)C1CS(=O)(=O)c2ccccc21 (stereo not drawn) in the records?
Response: -7.79

Prompt: Look up cytotoxicity at 70.5 h: "COc1ccccc1OC1(C(=O)O)CCN(c2cc(C)nc(C)c2)CC1"
Response: -0.575

Prompt: Look at this molecule and give its reported cytotoxicity at 70.5 h. COc1ccc(F)c(CN2CCCC3(CCN(C4CCOCC4)C3)C2)c1 (stereo not drawn)
Response: -4.15
